This collection of values is drawn from patent US7932279B2.

Entries and their measured IC50 follow.
# target: HSP90α (Homo sapiens)
# Construct: purchased Stressgen Lot B506492
# procedureText: HSP90 binding assay (fluorescent ELISA, competition with biotinylated Geldanamycin)
# experimentalParameters: reported as range of IC50's

Solved cases (5 shown):
{"compound": "COCCn1nnnc1-c1cc(-c2cccc(OC(F)(F)F)c2)c(O)cc1O [Compound 11]", "IC50": "> 50 µM"}
{"compound": "COCCCn1nnnc1-c1cc(-c2cccc(C(=O)N3CCN(CCN4CCCC4)CC3)c2)c(O)cc1O [Compound 72]", "IC50": "> 50 µM"}
{"compound": "CCNC(=O)N1CCC(n2nnnc2-c2cc(-c3cc(C(C)C)ccc3OC)c(O)cc2O)CC1 [Compound 39]", "IC50": "1 to 10 µM"}
{"compound": "COCCCn1nnnc1-c1cc(-c2cccc(C(=O)NCCCN(C)C)c2)c(O)cc1O [Compound 65]", "IC50": "> 50 µM"}
{"compound": "COCCCn1nnnc1-c1cc(-c2cccc(C(C)C)c2)c(O)cc1O [Compound 76]", "IC50": "10 to 50 µM"}

Qu. What value of IC50 has been recorded for this entry: COCCCn1nnnc1-c1cc(-c2cccc(C(=O)OC)c2)c(O)cc1O [Compound 21]
Ans. 10 to 50 µM

Qu. What value of IC50 has been recorded for this entry: COCCCn1nnnc1-c1cc(-c2cccc(OC(F)(F)F)c2)c(O)cc1O [Compound 17]
Ans. 1 to 10 µM

Qu. What value of IC50 has been recorded for this entry: CCCCn1nnnc1-c1cc(-c2cccc(C(=O)N3CCN(CCCN4CCOCC4)CC3)c2)c(O)cc1O [Compound 56]
Ans. > 50 µM
